Please respond with reported protein stability index for every item in the list.
B1: PPFIA4 (parent)
chain: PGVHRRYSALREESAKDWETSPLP

- Variants of: B1
- Experiment: protein stability index of a GFP-peptide fusion (GPS, HEK-293T) (PSI 1-6); higher = more stable;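 note: lentivirally expressed fusions sorted by FACS into six bins by GFP to DsRed ratio, PSI derived from sequencing read proportions per bin multiplied by bin number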
- Test settings: c terminus: a fixed tail appended
Give your answer as a number; write no unit.

Prompt line: What value of protein stability index has been recorded for this entry: PGVHQRYSALREESAKDWETSPLP [R5Q]
Response line: 4.6

Prompt line: What value of protein stability index has been recorded for this entry: PGVHRRYSALREESAKDWETRPLP [S21R]
Response line: 4.03

Prompt line: What value of protein stability index has been recorded for this entry: PGVHRDYSALREESAKDWETSPLP [R6D]
Response line: 4.7

Prompt line: What value of protein stability index has been recorded for this entry: PGVHRRYSALREESAKDWETSPLF [P24F]
Response line: 3.59

Prompt line: What value of protein stability index has been recorded for this entry: PGVHRRYSAWREESAKDWETSPLP [L10W]
Response line: 4.31

Prompt line: What value of protein stability index has been recorded for this entry: PGHHRRYSALREESAKDWETSPLP [V3H]
Response line: 4.44

Prompt line: What value of protein stability index has been recorded for this entry: HGVHRRYSALREESAKDWETSPLP [P1H]
Response line: 4.36

Prompt line: What value of protein stability index has been recorded for this entry: PGVHRRYSALREESAKDAETSPLP [W18A]
Response line: 4.95

Prompt line: What value of protein stability index has been recorded for this entry: PGVHRRYSALREEKAKDWETSPLP [S14K]
Response line: 5

Prompt line: What value of protein stability index has been recorded for this entry: PGVHRRYSALREESATDWETSPLP [K16T]
Response line: 4.5

Prompt line: What value of protein stability index has been recorded for this entry: PGVHRRYSALREESAKDWMTSPLP [E19M]
Response line: 2.93

Prompt line: What value of protein stability index has been recorded for this entry: PGVHRRYSALREESAKDWETPPLP [S21P]
Response line: 4.08

Prompt line: What value of protein stability index has been recorded for this entry: PGVHRRYSALREESAKDWEDSPLP [T20D]
Response line: 5.09

Prompt line: What value of protein stability index has been recorded for this entry: PGVHRRYSALREESAKDWESSPLP [T20S]
Response line: 4.83

Prompt line: What value of protein stability index has been recorded for this entry: PWVHRRYSALREESAKDWETSPLP [G2W]
Response line: 4.36

Prompt line: What value of protein stability index has been recorded for this entry: PGVHRRYSALREESAKDWETSPLH [P24H]
Response line: 3.19

Prompt line: What value of protein stability index has been recorded for this entry: PGVHRRYSALREESAKGWETSPLP [D17G]
Response line: 3.9

Prompt line: What value of protein stability index has been recorded for this entry: PGVHRRYSALRECSAKDWETSPLP [E13C]
Response line: 2.38

Prompt line: What value of protein stability index has been recorded for this entry: PGVHRRYSALREESMKDWETSPLP [A15M]
Response line: 2.77

Prompt line: What value of protein stability index has been recorded for this entry: PGVHRRYSALREELAKDWETSPLP [S14L]
Response line: 3.93

Prompt line: What value of protein stability index has been recorded for this entry: PGVHRRYSALREESAKDWECSPLP [T20C]
Response line: 3.75

Prompt line: What value of protein stability index has been recorded for this entry: PGVHRRYSALREESSKDWETSPLP [A15S]
Response line: 3.76

Prompt line: What value of protein stability index has been recorded for this entry: PGVHRRYSALREESAKDWETSPLS [P24S]
Response line: 3.83

Prompt line: What value of protein stability index has been recorded for this entry: PGVHRRYSALREESAKDWETSPLI [P24I]
Response line: 3.87

Prompt line: What value of protein stability index has been recorded for this entry: PGVHWRYSALREESAKDWETSPLP [R5W]
Response line: 3.81

Prompt line: What value of protein stability index has been recorded for this entry: PGVHRRYSALREESAFDWETSPLP [K16F]
Response line: 3.17

Prompt line: What value of protein stability index has been recorded for this entry: PGVTRRYSALREESAKDWETSPLP [H4T]
Response line: 4.36

Prompt line: What value of protein stability index has been recorded for this entry: PGVHRRYSALREESAKDHETSPLP [W18H]
Response line: 5.23

Prompt line: What value of protein stability index has been recorded for this entry: PGVHRRYSALREESAKDWETSELP [P22E]
Response line: 4.94

Hello, the source for this data is the supplement of paper PMC10567573, in case you need it.
